Test system: Nucleic Acid
assayComment: Stabilization of human G-quadruplex F21T assessed as change in melting temperature at 5 uM by FRET assay
Type: nucleic-acid assay
Tag: rule met if measured ΔTm is not below 30 °C, rule not met if it is.

mol	labelClass
O=C(Nc1ccc(C2=NCCCN2)cc1)Nc1ccc(C2=NCCCN2)cc1	rule not met
Cc1cc(NCCCCCCCNc2cc(C)nc3cc(N)ccc23)c2ccc(N)cc2n1	rule met
COc1ccc2c(NCCCCCCNc3c4ccccc4nc4cc(OC)ccc34)c3ccccc3nc2c1	rule met

API: above_or_equal(metric=ΔTm, cutoff=30 °C) for item "Cc1ccc(NC(=O)Nc2nc3ccccc3s2)cc1NC(=O)Nc1nc2ccccc2s1" rule not met

Reported ΔTm reaches at least 30 °C for "O=C(Nc1ccc(C2=NCCN2)cc1)c1ccc(C(=O)Nc2ccc(C3=NCCN3)cc2)c(Cl)c1" ? rule not met

// inclusive: ΔTm at least 30 °C? input: "COc1cc2cc3c4cc(OC)c(OC)cc4cc[n+]3c(C)c2cc1OC.O=C([O-])CS(=O)(=O)O" rule met

Is ΔTm at least 30 °C? Consider "N=C(N)c1ccc(/C=C/c2ccc(C(=N)N)cc2O)cc1" rule not met

Hi, just wondering whether "c1ccc2c(NCCCCCCCCNc3c4ccccc4nc4ccccc34)c3ccccc3nc2c1" shows ΔTm of 30 °C or higher. rule met

State whether the measured ΔTm reaches 30 °C, counting equality as reaching it, for "Cc1cc2nc3ccc(N(C)C)cc3[s+]c2cc1N" rule met

Determine whether this compound has ΔTm no lower than 30 °C: "CN(C)c1ccc(C=c2c3ccccc3n3c2cc(-c2ccc(Cl)cc2)[n+]3C)cc1" rule not met

For this compound, is measured ΔTm 30 °C or higher? "CCN(CC)CCNc1ccc2nc(C)n3c4ccc(OC)cc4c(=O)c1c23" rule not met

Threshold query (ΔTm >= 30 °C) on "COc1ccc2c(=O)oc3c(OC)cc(CCN(C)C)c4c(=O)oc1c2c34" rule not met

----------
System: Nucleic Acid
assayComment: Stabilization of DNA duplex hairpin structure assessed as change in melting temperature at 1 uM by FRET assay
Format: nucleic-acid assay
propertyLabel: ΔTm (°C)
Answer format: numeric, °C implied, no suffix.

Here are 4 compounds together with their reported answers.
mol	unitSymbol	ΔTm
Cc1ccc2c(ccc(/C=C/c3ccc(O)c4ncccc34)[n+]2C)c1	°C	0
N=C(N)c1ccc(/C=C/c2ccc(C(=N)N)cc2O)cc1	°C	3.2
CCN1C=C/C(=C\C=C\c2cc[n+](CC)c3ccccc23)c2ccccc21	°C	0.6
CC(=O)N(C)c1ccc(Nc2cc(C)nc3ccc4nc[nH]c4c23)cc1	°C	0.4

Need ΔTm, item "Cc1cc(NCCCCCCCNc2cc(C)nc3cc(N)ccc23)c2ccc(N)cc2n1" 0.6

For "O=C(Nc1ccc(C2=NCCN2)cc1)c1ccc(C(=O)Nc2ccc(C3=NCCN3)cc2)c([N+](=O)[O-])c1" , what is its reported ΔTm? 3.4

----------
Tested on: Nucleic Acid
assayComment: Stabilization of DNA duplex hairpin structure assessed as change in melting temperature at 1 uM by FRET assay
Format: nucleic-acid assay
propertyLabel: ΔTm
Remember to quote the unit after the number.

// solved cases for ΔTm follow
mol	experimentalResult
COc1cc2cc3c4cc(OC)c(OC)cc4cc[n+]3c(C)c2cc1OC.O=C([O-])CS(=O)(=O)O	3.2 °C
O=C(Nc1ccc(C2=NCCN2)cc1)c1ccc(C(=O)Nc2ccc(C3=NCCN3)cc2)c(Cl)c1	1.4 °C
CCN(CC)Cc1cc2[nH]c3c4ccc(Cl)cc4ncc3c2cc1OC	0.7 °C
COc1cc2c3c(n(C)c(=O)c2cc1OC)-c1cc2c(cc1C3=O)OCO2	0.3 °C

Now for another entry.
// lookup ΔTm for "Cc1cc(N)c2ccccc2[n+]1CCCCCCCCCC[n+]1c(C)cc(N)c2ccccc21" 1.3 °C
